- Assay Target: Platelet-activating factor acetylhydrolase (Homo sapiens) (UniProt Q13093)
- Sequence (Q13093 whole entry, looked up): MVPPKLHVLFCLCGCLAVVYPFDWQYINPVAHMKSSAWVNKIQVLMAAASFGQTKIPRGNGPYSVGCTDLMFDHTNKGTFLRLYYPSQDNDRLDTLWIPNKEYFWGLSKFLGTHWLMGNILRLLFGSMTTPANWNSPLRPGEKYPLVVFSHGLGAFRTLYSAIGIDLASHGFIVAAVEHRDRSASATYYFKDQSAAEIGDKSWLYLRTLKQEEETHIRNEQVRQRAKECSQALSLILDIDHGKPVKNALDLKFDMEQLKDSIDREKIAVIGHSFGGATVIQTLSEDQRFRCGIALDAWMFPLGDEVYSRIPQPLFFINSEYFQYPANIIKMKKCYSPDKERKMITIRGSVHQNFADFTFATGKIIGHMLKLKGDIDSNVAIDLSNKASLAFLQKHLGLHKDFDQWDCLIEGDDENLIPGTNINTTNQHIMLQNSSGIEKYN
- Test Details: pPAFAH enzyme inhibitors, primary screen, biochemical, fluorescence polarization, human (AID 463082);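 note: inhibitors block binding of the rhodamine activity-based probe so polarization drops; 0% = enzyme with DMSO and 100% = wells lacking pPAFAH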
- Test Conditions: recombinant pPAFAH, FP-rhodamine probe fluorescence polarization; at 3.39 µM; active compounds read high
The campaign covered roughly 330,000 compounds. About 4,900 (1.5%) were called active. For the sample, actives were picked, then their nearest neighbours and some compounds at random.
// reported inhibition for each item listed

Compound: Cc1c(CC(=O)N2CCN(C(=O)C3COc4ccccc4O3)CC2)c(=O)oc2c(O)c(O)ccc12 (stereo unspecified)
inhibition / %: 80.7

Compound: CCc1ccc(CN(C)Cc2nc(Cc3ccccc3)no2)nc1
inhibition / %: 1.77

Compound: Cc1cc(C)c(C(=O)CSc2nc(C)cc(=O)[nH]2)c(C)c1
inhibition / %: 8.8

Compound: CC(C)n1cnc2c(NCc3ccccc3)cc(OCC3CCN(C)CC3)cc21
inhibition / %: 11.1

Compound: COc1cc(-c2noc(C3CCCN(S(=O)(=O)c4cccc(Cl)c4)C3)n2)cc(OC)c1OC (stereo unspecified)
inhibition / %: 1.19

Compound: CC(NS(=O)(=O)c1ccc(OCC(=O)N2CCCC2)cc1)c1ccccc1 (stereo unspecified)
inhibition / %: 14.5

Compound: O=C(NCc1cccc(Cl)c1)C1CCN(c2nnc(N3CCCC3=O)s2)CC1
inhibition / %: 3.53

Compound: Cc1cc(C(=O)CSc2nc(N)cc(=O)[nH]2)c(C)n1Cc1ccco1
inhibition / %: 13.6

Compound: Cc1cc(C)cc(NC(=O)NCc2ccccn2)c1
inhibition / %: 1.23

Compound: Cc1ccc(Nc2c(F)c(F)c(F)c(F)c2C(=O)O)c(C)c1
inhibition / %: 8.5

Compound: COCCNC(=O)c1snc2ccc(Cl)cc12
inhibition / %: -0.4

Compound: CCCc1cc(=O)[nH]c(SCC(=O)c2cc(C)n(CCC)c2C)n1
inhibition / %: 25.1

Compound: COCCNC(=O)Nc1ccc2nc(-c3ccco3)c(-c3ccco3)nc2c1
inhibition / %: 75.6

Compound: COc1cccc2c(C)c(C(=O)O)[nH]c12
inhibition / %: 40

Compound: CCOc1ccccc1NS(=O)(=O)c1c[nH]c(C(=O)OC)c1
inhibition / %: -0.19

Compound: Cc1cc(C(=O)CSc2nc(N)cc(=O)[nH]2)c(C)n1CCc1ccc(Cl)cc1
inhibition / %: 69.6

Compound: COc1ccc(CNC(=O)Cc2ccc(-c3ccccc3)cc2)cc1OC
inhibition / %: 31.1

Compound: COc1ccc(CCNC(=O)Cc2ccc(C)cc2)cc1OC
inhibition / %: 0.86

Compound: COCCN1C(=O)C(=O)/C(=C(/O)c2ccc(S(=O)(=O)N3CCCCC3)cc2)C1c1ccc(OC)c(OC)c1 (stereo unspecified)
inhibition / %: -2.4

Compound: Cc1noc(C)c1C(=O)OC(C)C(=O)Nc1ccc2c(c1)OCO2 (stereo unspecified)
inhibition / %: 1.18

Compound: COc1cnc(-c2ccccn2)nc1Oc1ccc(C(C)(C)C)cc1
inhibition / %: 3.59

Compound: Cc1c(C(=O)N/N=C/c2ccccc2)[nH]c2c([N+](=O)[O-])cccc12
inhibition / %: 2.71

Compound: COC(=O)c1cccc(N(C(=O)c2ccco2)C(C(=O)NC2CCCC2)c2ccco2)c1 (stereo unspecified)
inhibition / %: -7.26

Compound: CCCc1cc(=O)[nH]c(SCC(=O)N2C(C)CCCC2C)n1 (stereo unspecified)
inhibition / %: 8.03

Compound: CCOC(=O)c1c(N=CN(C)C)c(C#N)c2n1CCCC2
inhibition / %: -0.32

Compound: Oc1ccc2ccccc2c1N=Nc1nccs1
inhibition / %: 17.6

Compound: Cn1c2ccccc2c2cc(/C=C(\NC(=O)c3ccccc3)C(=O)NCC(=O)O)ccc21
inhibition / %: 24.7

Compound: CC(=O)c1ccc(-c2nnc(CCC(=O)N(C)Cc3cnc4ccccn34)o2)s1
inhibition / %: 3.22

Compound: COc1ccc(CNc2cc(C)cc(C)c2)cc1OC
inhibition / %: 0.82

Compound: Cc1c(C)c2ccc(OCC(=O)N3CCC(C(=O)O)CC3)c(C)c2oc1=O
inhibition / %: -1.32

Compound: N#Cc1c(NC(=O)C2CCCO2)sc2c1CCCCC2 (stereo unspecified)
inhibition / %: -1.14

Compound: O=C(COc1ccc(S(=O)(=O)NCc2ccccc2)cc1)N1CCOCC1
inhibition / %: 4.78

Compound: O=C(Nc1ccc(F)cc1)N1CCN(c2ccc(F)cc2)CC1
inhibition / %: -4.2

Compound: CC(=O)N1CCN(c2ccc(NCc3ccc(C(C)C)cc3)cc2)CC1
inhibition / %: 30.8

Compound: Oc1ccc(N=Nc2nccs2)c(O)c1
inhibition / %: 37.2

Compound: CCCCNC(=O)C1CCC(=O)N1CCc1ccccc1 (stereo unspecified)
inhibition / %: 3.82

Compound: O=C1CSc2ccc(C(=O)NCc3ccccn3)cc2N1
inhibition / %: 0.84

Compound: CC(CC(=O)N1CCN(c2ccccc2)CC1)c1ccccc1 (stereo unspecified)
inhibition / %: 0.04

Compound: Cc1cc(=O)oc2c(C)c(OCC(=O)NCCc3ccc(S(N)(=O)=O)cc3)ccc12
inhibition / %: 1.13

Compound: COc1cccc(NC(=O)NCCN2CCCCC2)c1
inhibition / %: 3.86

Compound: Cc1nn(CC(=O)N/N=C/c2ccc(F)cc2)c(C)c1[N+](=O)[O-]
inhibition / %: -6.43

Compound: Nc1ccc2nc3c(=O)[nH]c(=S)[nH]c3nc2c1
inhibition / %: 47.8

Compound: CC(=O)N1CCN(C(=O)c2cc(-c3ccc(Cl)s3)nc3ccccc23)CC1
inhibition / %: 3.56

Compound: O=C(COc1ccc(S(=O)(=O)NCCc2ccccc2)cc1)N1CCCC1
inhibition / %: 26.8

Compound: Cc1cc(=O)[nH]c(SCc2cccc(F)c2)n1
inhibition / %: -3.14

Compound: Cc1cc(=O)[nH]c(SCc2ccc(Cl)cc2)n1
inhibition / %: -2.26
